Numbers sourced from PubChem BioAssay AID652148.

Molecular target: UniProtKB Q07960
Sequence (Q07960 whole entry, looked up): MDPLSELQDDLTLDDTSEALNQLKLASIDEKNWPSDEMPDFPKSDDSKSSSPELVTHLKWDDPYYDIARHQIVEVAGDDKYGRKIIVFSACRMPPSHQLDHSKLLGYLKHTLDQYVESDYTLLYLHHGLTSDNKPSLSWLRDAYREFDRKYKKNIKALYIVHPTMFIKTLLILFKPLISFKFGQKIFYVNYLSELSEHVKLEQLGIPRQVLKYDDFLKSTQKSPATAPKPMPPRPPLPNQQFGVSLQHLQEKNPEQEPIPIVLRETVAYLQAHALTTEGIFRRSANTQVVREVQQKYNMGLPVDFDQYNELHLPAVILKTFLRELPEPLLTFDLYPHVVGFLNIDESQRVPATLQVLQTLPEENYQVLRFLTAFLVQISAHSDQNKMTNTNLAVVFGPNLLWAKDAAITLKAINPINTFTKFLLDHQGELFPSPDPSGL
Assay: ARHGAP1 GAP activity inhibitors on Rac1 – biochemical, Biomol green phosphate read-out, selectivity assay for MgcRacGAP inhibitor project, dose response (AID 652148)
Details: p50RhoGAP-stimulated Rac1 GTP hydrolysis
pIC50: −log10 of the molar value.

[
  {
    "Molecule": "CC(=O)Nc1ccc2sn(-c3ccccc3)c(=O)c2c1",
    "Target System": "UniProtKB Q07960",
    "pIC50": 4.65
  },
  {
    "Molecule": "CC1OC(CC(=O)O)CC2=C1C(=O)c1c(O)cccc1C2=O (stereo not drawn)",
    "Target System": "UniProtKB Q07960",
    "pIC50": 5.06
  },
  {
    "Molecule": "O=C(O)c1cccc(-n2sc3ccccc3c2=O)c1",
    "Target System": "UniProtKB Q07960",
    "pIC50": 4.99
  },
  {
    "Molecule": "O=C1C(Cl)=C(NC(=O)c2ccccc2)C(=O)C(Cl)=C1NC(=O)c1ccccc1",
    "Target System": "UniProtKB Q07960",
    "pIC50": 4.34
  },
  {
    "Molecule": "O=C1C=CC(=O)N1c1ccccc1N1C(=O)C=CC1=O",
    "Target System": "UniProtKB Q07960",
    "pIC50": 4.80
  },
  {
    "Molecule": "Cc1cc(C)c2c(=N)c3ccccc3n(CCCCCCCCn3c4ccccc4c(=N)c4c(C)cc(C)nc43)c2n1",
    "Target System": "UniProtKB Q07960",
    "pIC50": 4.65
  },
  {
    "Molecule": "O=C1C(=Cc2ccco2)CCC1=Cc1ccco1",
    "Target System": "UniProtKB Q07960",
    "pIC50": 4.57
  },
  {
    "Molecule": "O=C(Nc1ccccc1Cl)/C(Cl)=C(\\Cl)S(=O)c1ccccc1 (stereo not drawn)",
    "Target System": "UniProtKB Q07960",
    "pIC50": 4.68
  },
  {
    "Molecule": "CSc1nc(N)c(N=Nc2ccc([As](=O)(O)O)cc2)c(=O)[nH]1",
    "Target System": "UniProtKB Q07960",
    "pIC50": 5.51
  },
  {
    "Molecule": "Cn1ccc(=Nc2ccc(NC(=O)c3ccc(N=c4ccn(C)c5ccc([N+](=O)[O-])cc45)cc3)cc2)cc1",
    "Target System": "UniProtKB Q07960",
    "pIC50": 4.65
  },
  {
    "Molecule": "O=C1C=CC(=O)c2c(O)c(N3CCN(CCOCCO)CC3)c(Br)c(O)c21",
    "Target System": "UniProtKB Q07960",
    "pIC50": 4.49
  },
  {
    "Molecule": "O=c1c2cc(F)ccc2sn1-c1ccccc1Cl",
    "Target System": "UniProtKB Q07960",
    "pIC50": 4.61
  },
  {
    "Molecule": "O=C1C=CC(=O)c2c(O)c(N3CCN(CCO)CC3)c(Cl)c(O)c21",
    "Target System": "UniProtKB Q07960",
    "pIC50": 4.44
  },
  {
    "Molecule": "CCN(CC)c1ccc(C(=C2C=CC(=[N+](CC)CC)C=C2)c2ccc(N(CC)CC)cc2)cc1",
    "Target System": "UniProtKB Q07960",
    "pIC50": 4.66
  },
  {
    "Molecule": "CN(C)c1nc(=NCc2cccs2)ss1",
    "Target System": "UniProtKB Q07960",
    "pIC50": 4.83
  },
  {
    "Molecule": "O=C1NC(=S)N(c2ccccc2)C(=O)/C1=C/c1ccco1",
    "Target System": "UniProtKB Q07960",
    "pIC50": 5.40
  },
  {
    "Molecule": "COc1ccc(-n2sc3ccc(F)cc3c2=O)cc1",
    "Target System": "UniProtKB Q07960",
    "pIC50": 4.82
  },
  {
    "Molecule": "O=C(O)C1CSC(c2ccco2)N1 (stereo not drawn)",
    "Target System": "UniProtKB Q07960",
    "pIC50": 4.79
  },
  {
    "Molecule": "O=c1c2cc(F)ccc2sn1-c1ccccc1",
    "Target System": "UniProtKB Q07960",
    "pIC50": 5.69
  },
  {
    "Molecule": "CN(C)c1ncc(C2=C(Cl)C(=O)C(N3CCCC3)=C(Cl)C2=O)s1",
    "Target System": "UniProtKB Q07960",
    "pIC50": 4.97
  },
  {
    "Molecule": "O=c1c2ccccc2sn1-c1ccc(Cl)cc1",
    "Target System": "UniProtKB Q07960",
    "pIC50": 4.91
  },
  {
    "Molecule": "CN(C)c1ccc(C=c2c3cc(O)ccc3n3c2cc(-c2ccccc2)[n+]3C)cc1",
    "Target System": "UniProtKB Q07960",
    "pIC50": 4.44
  },
  {
    "Molecule": "CCN1CCN(Cc2ccc(NC(=O)c3ccc(C)c(/C=C/c4cnc(Nc5cc(N6CCNCC6)nc(C)n5)cn4)c3)cc2C(F)(F)F)CC1",
    "Target System": "UniProtKB Q07960",
    "pIC50": 4.27
  }
]
